Recorded below: pIC50, system 5-LOX (Homo sapiens, UniProt P09917).
Recall that pIC50 is obtained by taking minus log10 of the concentration measured in molar.

{"MOLECULE": "CCOC(=O)COc1ccc(C2=NN(c3ccc(S(C)(=O)=O)cc3)C(c3ccc(OC)cc3)C2)cc1 (centres unmarked) [Compound 15c]", "MEASUREMENT TARGET": "5-LOX (Homo sapiens, UniProt P09917)", "READOUT TYPE": "pIC50", "READOUT NUMBER": 6.34}

We next turn to a different molecule, shown below.
Prompt line: What value of pIC50 on 5-LOX (Homo sapiens, UniProt P09917) does CCOC(=O)COc1ccc(C2=NN(c3ccc(S(C)(=O)=O)cc3)C(c3cc(OC)c(OC)c(OC)c3)C2)cc1 (centres unmarked) [Compound 15d] have?
Response line: 6.62

###

Entries and their Paw edema thickness ± SEM
test system: carrageenan-induced rat paw edema; experiment: Carrageenan-induced rat paw edema assay; type: in vivo; settings: 3 h after carrageenan, 50 mg/kg, rat
Please give the number followed by its unit.

Use these answered entries as a reference point.
{"COMPOUND": "CCOC(=O)COc1ccc(C2=NN(c3ccc(S(C)(=O)=O)cc3)C(c3cc(OC)c(OC)c(OC)c3)C2)cc1 (stereo not shown) [Compound 15d]", "Paw edema thickness ± SEM": "2.79 ± 0.011 mm"}
{"COMPOUND": "Cc1ccc(-c2cc(C(F)(F)F)nn2-c2ccc(S(N)(=O)=O)cc2)cc1 [Celecoxib, celecoxib, reference compound]", "Paw edema thickness ± SEM": "3.1 ± 0.011 mm"}
{"COMPOUND": "CCOC(=O)COc1ccc(C2=NN(c3ccc(S(C)(=O)=O)cc3)C(c3ccc(Br)cc3)C2)cc1 (stereo not shown)", "Paw edema thickness ± SEM": "2.61 ± 0.018 mm"}

We next turn to a different compound, shown below.
Prompt line: Would you kindly share the measured Paw edema thickness ± SEM for CCOC(=O)COc1ccc(C2=NN(c3ccc(S(C)(=O)=O)cc3)C(c3ccc(OC)cc3)C2)cc1 (stereo not shown) [Compound 15c] ?
Response line: 2.56 ± 0.0034 mm

###

Entries and their Average severity
tested on: gastric mucosa; assay: Ulcerogenic liability (ulcer index); type: in vivo; settings: 50 mg/kg orally, three successive days, rats
Marks after values point to notes of the source that are not given here.

Use these answered entries as a reference point.
{"COMPOUND": "CCOC(=O)COc1ccc(C2=NN(c3ccc(S(C)(=O)=O)cc3)C(c3cc(OC)c(OC)c(OC)c3)C2)cc1 (stereo not shown) [Compound 15d]", "Average severity": "0.51 ± 0.013^b"}
{"COMPOUND": "Cc1ccc(-c2cc(C(F)(F)F)nn2-c2ccc(S(N)(=O)=O)cc2)cc1 [Celecoxib, celecoxib, reference compound]", "Average severity": "0.66 ± 0.026***^b"}

Prompt line: Would you kindly share the measured Average severity for CCOC(=O)COc1ccc(C2=NN(c3ccc(S(C)(=O)=O)cc3)C(c3ccc(Br)cc3)C2)cc1 (stereo not shown) ?
Response line: 0.29 ± 0.009***^b

Prompt line: Would you kindly share the measured Average severity for CCOC(=O)COc1ccc(C2=NN(c3ccc(S(C)(=O)=O)cc3)C(c3ccc(OC)cc3)C2)cc1 (stereo not shown) [Compound 15c] ?
Response line: 0.17 ± 0.004***^b
